Target: T1, Bfl-1, Q16548
T1 chain: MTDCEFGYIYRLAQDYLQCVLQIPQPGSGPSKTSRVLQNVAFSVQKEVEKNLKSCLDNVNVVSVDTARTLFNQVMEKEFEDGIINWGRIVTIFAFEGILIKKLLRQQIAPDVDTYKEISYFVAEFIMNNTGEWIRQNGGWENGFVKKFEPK
Assay: peptide SPOT array, c-Myc-tagged receptor at 1 uM or 100 nM, anti-c-Myc-Cy3
endpoint_name: SPOT signal as a fraction of Bim BH3's signal on the same receptor and array
Lab note: write the figure by itself, no unit.

// sample DSLLWKLAGLLRESLDVVLSGCSTLS [STK11IP] , its SPOT signal as a fraction of Bim BH3's signal on the same receptor and array was 0.04

// sample MPYMEAVIHEDQRFGDVIPMSLARRV [CYP2A6] , its SPOT signal as a fraction of Bim BH3's signal on the same receptor and array was 0.04

// sample LNLLMISVAFDRVIGDQLEKLCDSLL [SLC38A8] , its SPOT signal as a fraction of Bim BH3's signal on the same receptor and array was 0.04

// sample TAGLRPGARLLRVCGQTLPSLRPEAA [SIPA1] , its SPOT signal as a fraction of Bim BH3's signal on the same receptor and array was 0.8

// sample PKKKMTLSEIYQWILDNFPYYREAGS [FOXJ3] , its SPOT signal as a fraction of Bim BH3's signal on the same receptor and array was 0.1

// sample SQEPLEKAQLLALVLDQLIQSHHYAA [MCF2L2] , its SPOT signal as a fraction of Bim BH3's signal on the same receptor and array was 0.03

// sample DDMFEPHSWNDKELSDDCFQQWGVRP [PRCP] , its SPOT signal as a fraction of Bim BH3's signal on the same receptor and array was 0.05

// sample SKEVAILCSFLLGLGDSCFNTQLLSI [MFSD11] , its SPOT signal as a fraction of Bim BH3's signal on the same receptor and array was 0.04

// sample ISSLDLLPYGDRYIAKVLKNSIHEKF [IQGAP2] , its SPOT signal as a fraction of Bim BH3's signal on the same receptor and array was 0.51

// sample GFANHDVVEVLRNAGQVVHLTLVRRK [INADL] , its SPOT signal as a fraction of Bim BH3's signal on the same receptor and array was 0.38

// sample PVESSWIAPELRLQSDDILPLGKDSG [DHX30] , its SPOT signal as a fraction of Bim BH3's signal on the same receptor and array was 0.04

// sample RMIVDCVSSHLKKTGDGAKTFIIFLC [BBS10] , its SPOT signal as a fraction of Bim BH3's signal on the same receptor and array was 0.36

// sample WVKSIRICTPMGKLGDSCHPLTRKVP [PROK2] , its SPOT signal as a fraction of Bim BH3's signal on the same receptor and array was 0.56

// sample GTAVAYRGAHDRGRGRAVYNTFRAAP [XXXX] , its SPOT signal as a fraction of Bim BH3's signal on the same receptor and array was 1.47

// sample MRPEIWIAQEDRRIGDEFNAYYARRV [BCL2L11] , its SPOT signal as a fraction of Bim BH3's signal on the same receptor and array was 0.05

// sample QASREAGAAADRNVAQRLFENYQTQS [CCDC68] , its SPOT signal as a fraction of Bim BH3's signal on the same receptor and array was 0.04

// sample VTLLSEVEKMDSNFGDCVQYKEIVKN [SYNE1] , its SPOT signal as a fraction of Bim BH3's signal on the same receptor and array was 0.05

// sample SFLSAHCASHLAWFLDSLTSLSQRLQ [TMEM214] , its SPOT signal as a fraction of Bim BH3's signal on the same receptor and array was 0.08

// sample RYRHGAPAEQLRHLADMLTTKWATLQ [PLEKHH1] , its SPOT signal as a fraction of Bim BH3's signal on the same receptor and array was 0.56
